biological target: PIM3 (Homo sapiens, UniProt Q86V86); assay: KinaseGlo Pim3 ATP depletion assay; assay type: biochemical
reported metric: IC50 (nM)

compound | IC50 [nM]
CC[C@H]1O[C@@H](c2ccncc2NC(=O)c2ccc(F)c(-c3c(F)cccc3F)n2)C[C@@H](O)[C@]1(C)O | 1.6

[A] C[C@@H]1O[C@H](c2ccncc2NC(=O)c2ccc(F)c(-c3c(F)cccc3F)n2)[C@@H](O)[C@H](O)[C@@]1(C)O (stereo in doubt)
[B] O=C(Nc1cnccc1[C@@]1(C(F)(F)F)CCCCO1)c1ccc(F)c(-c2c(F)cccc2F)n1
Which item exceeds the other in IC50, A or B ? Respond using the label that marks the chosen record.
B

[A] CC[C@]1(O)[C@H](O)C[C@H](c2ccncc2NC(=O)c2ncccc2N)O[C@@H]1C
[B] O=C(Nc1cnccc1[C@H]1C[C@@H](O)[C@H](O)[C@@H](CCl)O1)c1ccc(F)c(-c2c(F)cccc2F)n1
Which item exceeds the other in IC50, A or B ? Respond using the label that marks the chosen record.
A

[P] Nc1cnc(-c2c(F)cccc2F)nc1C(=O)Nc1cnccc1[C@H]1C[C@@H](O)[C@@]2(O)CCC[C@H]2O1
[Q] NC(=O)C[C@H]1O[C@@H](c2ccncc2NC(=O)c2ccc(F)c(-c3c(F)cccc3F)n2)C[C@@H](O)[C@@H]1O [Example 142]
Which item exceeds the other in IC50, P or Q ? Respond using the label that marks the chosen record.
Q

[P] C[C@H]1[C@H](C)O[C@H](c2ccncc2NC(=O)c2ccc(F)c(-c3c(F)cccc3F)n2)C[C@@H]1O (stereo in doubt)
[Q] CC1C(c2ccncc2NC(=O)c2ccc(F)c(-c3c(F)cccc3F)n2)OC(C)[C@@H](O)C1O (stereo in doubt) [Example 67]
[R] N#C[C@H]1O[C@@H](c2ccncc2NC(=O)c2nc(-c3nccs3)ccc2N)C[C@@H](O)[C@@H]1O
[S] Nc1cc(F)c(-c2ccccc2F)nc1C(=O)Nc1cnccc1C1=C[C@@H](O)[C@H](O)[C@@H](CCl)O1
Rank the items in ascending order with respect to IC50. Lab note: final answer is the ordered label list.
S, P, Q, R

====

Target: PIM2 (Homo sapiens, UniProt Q9P1W9)
Sequence (Q9P1W9 whole entry): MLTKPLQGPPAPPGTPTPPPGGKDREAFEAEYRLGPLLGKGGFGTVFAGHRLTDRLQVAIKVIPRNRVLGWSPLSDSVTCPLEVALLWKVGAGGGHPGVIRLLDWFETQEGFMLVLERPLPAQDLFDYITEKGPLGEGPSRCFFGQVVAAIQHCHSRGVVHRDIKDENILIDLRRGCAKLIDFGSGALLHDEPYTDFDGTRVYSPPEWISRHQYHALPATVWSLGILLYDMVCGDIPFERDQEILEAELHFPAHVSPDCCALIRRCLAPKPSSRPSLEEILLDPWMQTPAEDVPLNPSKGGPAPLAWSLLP
Assay: Pim 2 AlphaScreen assay (high ATP)
Type: biochemical
Details: read-out: Pim2 IC50
Procedure: Pim1, Pim2, Pim3 AlphaScreen Assay Pim 1, Pim 2 & Pim 3 AlphaScreen assays using high ATP (11-125×ATP Km) were used to determine the biochemical activity of the inhibitors. The activity of Pim 1, Pim 2, & Pim 3 is measured using a homogeneous bead based system quantifying the amount of phosphorylated peptide substrate resulting from kinase-catalyzed phosphoryl transfer to a peptide substrate. […]
reported metric: IC50 (nM)

Example entries begin here.
molecule | observed
C[C@]1(O)[C@H](N)C[C@H](c2ccncc2NC(=O)c2nc(-c3ccccc3)cnc2N)OC12CC2 | 2430
C[C@H]1O[C@@H](c2ccncc2NC(=O)c2ccc(F)c(-c3c(F)cc(S(C)(=O)=O)cc3F)n2)C[C@@H](N)[C@]1(C)O | 44.9
CC(C)(C)[C@H]1O[C@@H](c2ccncc2NC(=O)c2ccc(F)c(-c3c(F)cc(S(C)(=O)=O)cc3F)n2)C[C@@H](N)[C@@H]1O | 11.8
Nc1cc(F)c(-c2c(F)cccc2F)nc1C(=O)Nc1cnccc1[C@H]1C[C@@H](N)[C@@]2(O)CCCC[C@H]2O1 | 1.8

[1] CNC(=O)c1cc(F)c(-c2nc(C(=O)Nc3cnccc3[C@H]3C[C@@H](N)[C@](C)(O)[C@@H](C)O3)ccc2F)c(F)c1
[2] C[C@]1(O)[C@H](N)C[C@H](c2ccncc2NC(=O)c2ccc(F)c(-c3c(F)cccc3F)n2)OC12CC2 [Example 267]
Which item exceeds the other in IC50, 1 or 2 ? Respond using the label that marks the chosen record.
2
(2: 213 nM, 1: 27.3 nM)
